Ref: PubChem BioAssay AID1845195

Kindly supply the reported viability, T/C values for the records listed here.
- System: 156681-154-R-J1 tumor spheroid viability
- Measurement description: Anticancer human tumor 156681-154-R-J1 patient-derived melanoma cell line growth inhibition
- Cond: second compound 100 µM; first compound 10 µM; hits give low values; spheroids with HUVEC and MSC
- Procedure: Multicellular complex tumor spheroid response to DNA repair inhibitors in combination with DNA-damaging drugs This study explores the anticancer activities of DNA-damaging drugs and inhibitors of DNA damage repair, both as single agents and in combinations. […] Twenty-six patient-derived or established malignant cell lines were evaluated representing sarcoma, melanoma, small cell lung cancer (SCLC), non-small cell lung cancer (NSCLC), as well as bladder, ovarian and pancreatic cancers. […]
Numbers only, in %.

Check out these entries, answers already filled in.
[[record]]
molecule = "Cc1cc(C)c(CNC(=O)c2cc(-c3ccc(CN4CCOCC4)cc3)cc3c2cnn3C2CCCC2)c(=O)[nH]1 + Cn1nnc2c(C(N)=O)ncn2c1=O"
endpoint_value = 55.6

[[record]]
molecule = "COc1ccc([C@@H](O)c2cc(-c3ncnc4cc(N5CCOCC5)ccc34)c(F)cc2Cl)nn1 + Cn1nnc2c(C(N)=O)ncn2c1=O"
endpoint_value = 48.4

[[record]]
molecule = "CC1COCCN1c1cc(-c2ccnn2C)c2ccnc(-c3ccn[nH]3)c2n1 (stereo unspecified) + Cn1nnc2c(C(N)=O)ncn2c1=O"
endpoint_value = 17

[[record]]
molecule = "[2H]c1nc(C)nc([2H])c1-c1cc(NC[C@@H](C)c2cccc3c(C(=O)NC)ccnc23)ncn1 + Cn1nnc2c(C(N)=O)ncn2c1=O"
endpoint_value = 48.9

[[record]]
molecule = "CC(C)n1c(=O)n(C)c2cnc3cc(F)c(-c4ccc(OCCCN5CCCCC5)nc4)cc3c21 + Cn1nnc2c(C(N)=O)ncn2c1=O"
endpoint_value = 43.4


Next molecule, viability, T/C to be filled in.
// viability, T/C value for COc1cc(C)[nH]c(=O)c1CN1CCc2c(Cl)cc(C(OC)C3COC3)c(Cl)c2C1=O (stereo unspecified) + Cn1nnc2c(C(N)=O)ncn2c1=O : 61.4

---

- Tested on: 156681-154-R-J1 tumor spheroid viability
- Measurement description: Anticancer human tumor 156681-154-R-J1 cell line growth inhibition;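 further: spheroids exposed to compounds for 7 days before readout; percent of vehicle control viability where 100% = DMSO-treated spheroids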
- Cond: second compound 10 µM; first compound 3 µM; hits give low values; spheroids with HUVEC and MSC
Parameter: viability, T/C

[[record]]
molecule = "O=C(c1cc(Cc2n[nH]c(=O)c3ccccc23)ccc1F)N1CCN(C(=O)C2CC2)CC1 + Cn1nnc2c(C(N)=O)ncn2c1=O"
test_system = "156681-154-R-J1 tumor spheroid viability"
endpoint_value = "68.5%"

[[record]]
molecule = "Cn1ncnc1[C@H]1c2n[nH]c(=O)c3cc(F)cc(c23)N[C@@H]1c1ccc(F)cc1 + Cn1nnc2c(C(N)=O)ncn2c1=O"
test_system = "156681-154-R-J1 tumor spheroid viability"
endpoint_value = "13.6%"


// input: 2 molecules below; output: viability, T/C for each
1. CNCc1ccc(-c2cc(-c3nc(-c4ccc(S(=O)(=O)C(C)C)cc4)cnc3N)on2)cc1 + Cn1nnc2c(C(N)=O)ncn2c1=O
2. Cc1sc2c(c1C)C(c1ccc(Cl)cc1)=NC(CC(=O)Nc1ccc(O)cc1)c1nnc(C)n1-2 (centres undefined) + Cn1nnc2c(C(N)=O)ncn2c1=O

Response:
["11.1%", "24.4%"]
